TARGET_SYSTEM: NACHT, LRR and PYD domains-containing protein 3 (Mus musculus, UniProt Q8R4B8)
Sequence (Q8R4B8 whole entry, the tested form may be a part): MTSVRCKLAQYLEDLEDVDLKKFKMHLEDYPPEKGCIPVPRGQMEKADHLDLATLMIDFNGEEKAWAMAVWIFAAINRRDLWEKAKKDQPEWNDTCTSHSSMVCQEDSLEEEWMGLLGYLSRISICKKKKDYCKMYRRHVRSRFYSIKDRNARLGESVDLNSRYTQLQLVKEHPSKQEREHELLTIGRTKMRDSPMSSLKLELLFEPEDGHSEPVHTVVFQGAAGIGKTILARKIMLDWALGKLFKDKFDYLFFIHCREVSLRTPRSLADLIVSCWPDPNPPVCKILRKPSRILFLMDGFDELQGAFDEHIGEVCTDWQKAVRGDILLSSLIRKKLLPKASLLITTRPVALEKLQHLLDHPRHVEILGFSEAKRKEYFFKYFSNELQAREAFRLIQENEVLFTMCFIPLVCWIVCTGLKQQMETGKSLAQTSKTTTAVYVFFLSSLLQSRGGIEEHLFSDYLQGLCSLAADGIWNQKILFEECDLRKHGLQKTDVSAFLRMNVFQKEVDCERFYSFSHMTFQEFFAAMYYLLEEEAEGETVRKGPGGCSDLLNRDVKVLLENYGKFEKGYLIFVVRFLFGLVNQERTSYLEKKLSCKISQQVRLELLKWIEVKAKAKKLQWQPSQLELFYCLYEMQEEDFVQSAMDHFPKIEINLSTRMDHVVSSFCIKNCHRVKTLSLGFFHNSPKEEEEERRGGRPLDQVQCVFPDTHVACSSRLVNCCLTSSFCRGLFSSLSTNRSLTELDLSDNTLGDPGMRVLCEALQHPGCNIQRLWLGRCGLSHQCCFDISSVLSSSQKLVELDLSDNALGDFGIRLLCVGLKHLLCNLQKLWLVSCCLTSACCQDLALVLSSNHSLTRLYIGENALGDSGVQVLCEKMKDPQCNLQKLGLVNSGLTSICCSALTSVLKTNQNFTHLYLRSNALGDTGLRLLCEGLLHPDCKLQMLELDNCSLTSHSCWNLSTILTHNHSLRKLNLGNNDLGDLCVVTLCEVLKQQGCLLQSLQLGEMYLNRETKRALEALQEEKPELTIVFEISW
PROTOCOL_SUMMARY: Inhibition of NLRP3 inflammasome activation in LPS/nigericin-treated C57BL/6 mouse bone marrow-derived macrophages assessed as reduction in IL-1beta secretion preincubated for 3 hrs with LPS and for 30 mins with compound prior to nigericin addition and measured after 30 mins by ELISA
Assay type: cell-based, BMDM
pIC50: −log10 of the molar value.
I'd appreciate it if you could supply pIC50 values for the items below.

Task: Record COc1cc(/C=C/c2ccc(NC(=O)c3cccs3)cc2)c(/C=C/[N+](=O)[O-])c(OC)c1 : what is its pIC50 with NACHT, LRR and PYD domains-containing protein 3 (Mus musculus, UniProt Q8R4B8)?
Output: 5.67

Task: Record COc1cc(/C=C/c2ccc(NC(=O)c3ccc4ccccc4c3)cc2)c(/C=C/[N+](=O)[O-])c(OC)c1 : what is its pIC50 with NACHT, LRR and PYD domains-containing protein 3 (Mus musculus, UniProt Q8R4B8)?
Output: < 5.00

Task: Record COc1ccc(C(=O)Nc2ccc(/C=C/c3cc(OC)cc(OC)c3/C=C/[N+](=O)[O-])cc2)cc1 : what is its pIC50 with NACHT, LRR and PYD domains-containing protein 3 (Mus musculus, UniProt Q8R4B8)?
Output: < 5.00

Task: Record COc1cc(/C=C/c2ccc(NC(=O)c3ccccc3Br)cc2)c(/C=C/[N+](=O)[O-])c(OC)c1 : what is its pIC50 with NACHT, LRR and PYD domains-containing protein 3 (Mus musculus, UniProt Q8R4B8)?
Output: < 5.00

* * *

PROTOCOL_SUMMARY: Cytotoxicity against human L02 cells assessed as reduction in cell viability incubated for 24 hrs by MTT assay
Format: toxicity, cell-based
I'd appreciate it if you could supply IC50 at 24 h values for the items below.

Task: Quick one: IC50 at 24 h for O=[N+]([O-])/C=C/c1ccc2c(c1)OCO2 ?
Output: 39.2 µM

Task: Quick one: IC50 at 24 h for COc1cc(/C=C/c2ccc(NC(=O)c3ccoc3)cc2)c(/C=C/[N+](=O)[O-])c(OC)c1 ?
Output: > 100 µM

Task: Quick one: IC50 at 24 h for CCOc1ccc(C(=O)Nc2ccc(/C=C/c3cc(OC)cc(OC)c3/C=C/[N+](=O)[O-])cc2)cc1 ?
Output: > 100 µM

Task: Quick one: IC50 at 24 h for COc1cc(/C=C/c2ccc(NC(=O)c3ccc(Br)cc3)cc2)c(/C=C/[N+](=O)[O-])c(OC)c1 ?
Output: > 100 µM

* * *

TARGET_SYSTEM: NACHT, LRR and PYD domains-containing protein 3 (Mus musculus)
PROTOCOL_SUMMARY: Inhibition of NLRP3 inflammasome activation in LPS-stimulated mouse J774.A1 cells assessed as reduction in pyroptosis at 10 uM pretreated for 4 hrs with LPS and for 30 mins with compound prior to ATP addition and measured after 30 mins by PI/Hoechst33342 staining based analysis
Type: cell-based
SETUP_CONDITIONS: time 60.0 min
PARAMETER_MEASURED: inhibition
Express your answer as a number followed by its unit.

Task: Quick one: inhibition for CCc1ccc(C(=O)Nc2ccc(/C=C/c3cc(OC)cc(OC)c3/C=C/[N+](=O)[O-])cc2)cc1 ?
Output: 39%

Task: Quick one: inhibition for COc1cc(/C=C/c2ccc(NC(=O)c3ccccc3)cc2)c(/C=C/[N+](=O)[O-])c(OC)c1 ?
Output: 72.2%

Task: Quick one: inhibition for COc1cc(/C=C/c2ccc(NC(=O)c3ccccc3OC)cc2)c(/C=C/[N+](=O)[O-])c(OC)c1 ?
Output: 31%

Task: Quick one: inhibition for COc1cc(/C=C/c2ccc(NC(=O)c3ccc(I)cc3)cc2)c(/C=C/[N+](=O)[O-])c(OC)c1 ?
Output: 30.7%

Task: Quick one: inhibition for COc1cc(/C=C/c2ccc(NC(=O)c3cccc(Br)c3)cc2)c(/C=C/[N+](=O)[O-])c(OC)c1 ?
Output: 20.1%

Task: Quick one: inhibition for COc1cc(/C=C/c2ccc(NC(=O)c3ccccc3Br)cc2)c(/C=C/[N+](=O)[O-])c(OC)c1 ?
Output: 36%

Task: Quick one: inhibition for COc1cc(/C=C/c2ccc(NC(=O)c3cc4ccccc4o3)cc2)c(/C=C/[N+](=O)[O-])c(OC)c1 ?
Output: 6.47%

Task: Quick one: inhibition for COc1cc(/C=C/c2ccc(NC(=O)c3ccc(C)o3)cc2)c(/C=C/[N+](=O)[O-])c(OC)c1 ?
Output: 69.5%
